These data points were gathered from patent US20060148858A1.

Would you kindly list melting point for each of these compounds?

The compound listed as COc1cccc(CC(=O)O)c1OCCCc1cn(-c2ccc(C(F)(F)F)cn2)nc1C(C)(C)C [Example 345] has a reported melting point of 94 to 95 °C

Lab note: O=C(O)CCc1cccc(OCc2cn(-c3ccc(C(F)(F)F)cn3)nc2C2CCCCC2)c1 [Example 191] gave melting point of 94 to 95 °C

// CCOc1nn(-c2ccc(C(F)(F)F)cn2)cc1CCCOc1c(CCC(=O)O)cccc1OC [Example 145] : melting point value = 87 to 88 °C

For reference, reported melting point for CC(C)c1cccc(CC(=O)O)c1OCCCc1cn(-c2ccc(C(F)(F)F)cn2)nc1C(C)C [Example 357] stands at 108 to 109 °C

The reported melting point of the compound CCCC(=O)Nc1ccc(-n2cc(CCCOc3c(CC(=O)O)cccc3OC)c(C(C)C)n2)nc1 [Example 267] was 119 to 120 °C

Lab note: measured melting point of Cc1nn(-c2ccc(C(F)(F)F)cn2)cc1COc1ccc(OCC(=O)O)cc1 [Example 10] was 138 to 139 °C

CCOc1nn(-c2cc(C(F)(F)F)ccn2)cc1CCCOc1cccc(OC(C)(C)C(=O)O)c1 [Example 289] yielded melting point of 98 to 99 °C

Reported melting point of CC(C)(Oc1cccc(OCCCc2cn(-c3ccc(C(F)(F)F)cn3)nc2-c2ccccc2)c1)C(=O)O [Example 133] : 141 to 142 °C

Value of melting point reported for the compound CC(C)c1nn(-c2ccc(C(F)(F)F)cn2)cc1CCCOc1ccccc1CC(=O)O [Example 179] is 132 to 133 °C

Looking up CCOc1nn(-c2ccc(C(F)(F)F)cn2)cc1CCCOc1ccccc1CC(=O)O [Example 31] , I see its melting point listed as 83 to 84 °C

Reported melting point of CC(C)c1nn(-c2ccc(C(F)(F)F)cn2)cc1CCCCOc1cc(CCC(=O)O)n(C)n1 [Example 50] : 113 to 114 °C

Sample O=C(O)CCc1ccc(OCCCc2cc(-c3ccc(C(F)(F)F)cc3)no2)cc1 [Example 5] ; melting point observed: 174 to 175 °C

Reported melting point ( CCCc1nn(-c2ccc(C(F)(F)F)cn2)cc1COc1ccc(CCC(=O)O)c(C)c1 [Example 121] ) = 129 to 130 °C

melting point reading for CCCc1nn(-c2ccc(C(F)(F)F)cn2)cc1CCCOc1ccc(OC)c(CC(=O)O)c1 [Example 97] : 135 to 136 °C

response.value for CCOc1nn(-c2ccccn2)cc1CCCOc1cccc(OC(C)(C)C(=O)O)c1 [Example 101] (field: melting point) = 99 to 101 °C

The compound CC(C)c1nn(-c2ccc(C(F)(F)F)cn2)cc1CCCCOc1nn(-c2ccccc2)cc1CC(=O)O [Example 68] showed melting point equal to 119 to 120 °C
